Tested on: UACC-257 melanoma
assay.summary: NCI-60 one-dose screen, 48 h
assay.setup: 10 µM unless noted
The panel holds about 83,000 compounds, 20% with a hit somewhere; the sample as a whole holds those more often. Calls of active or inactive are those of the source. Rule for the calls: active = growth percent below 10; inactive = the rest.
Could you please pick one outcome from this set? active, inactive

Worked examples follow.
# compound, group
measured = [
    ("C/C(=C(\\c1ccc(OCCN2CCCCCC2)cc1)c1ccc(OC(=O)Cc2ccccc2)cc1)c1ccc(Cl)cc1", "active"),
    ("CC/C=C\\C/C=C/C=C1/C(=O)C=C[C@@H]1C/C=C\\CCCC(=O)OC", "inactive"),
    ("CN(C)Cc1ccc(C(=O)Nc2ccc3ncnc(Nc4ccc(Oc5cccc(F)c5)c(Cl)c4)c3c2)cc1", "active"),
    ("CN(CCC#N)c1ccc(/C=C2\\NC(=O)NC2=O)cc1", "inactive"),
    ("CCCCCCCCCCCCCCCCOC(=O)c1c(C)[nH]c(/C=C2\\N=C(c3ccc[nH]3)C=C2OC)c1C", "inactive"),
]

// outcome(item) with item = C#Cc1cccc(Nc2nc3ccc([N+](=O)[O-])cc3nc2Nc2cccc(C#C)c2)c1
active

And what about the compound C/C(C=O)=C\c1ccc2c(c1)OCO2 ?
inactive

And what about the compound COc1cccc(NC(=O)c2cccc(C3CCc4c(cc(OC)c(OC)c4OC)O3)c2)c1 (stereo not given) ?
inactive

And what about the compound COc1ccc2cc(-c3ccc(-c4ccc(C(=N)N)s4)s3)ccc2c1 ?
inactive

And what about the compound CN1CCCc2cc(/C=C3/SC(=S)N(CCc4ccc(O)cc4)C3=O)ccc21 ?
inactive
